Where do these numbers come from? They come from patent US8822462B2.

target.system: NR1/NR2B (Homo sapiens, UniProt Q05586+Q13224)
Construct: expressed in transfected cells; host or cells: Xenopus laevis oocytes
Sequence (Q13224 27-1484, species assumed, other chains not shown): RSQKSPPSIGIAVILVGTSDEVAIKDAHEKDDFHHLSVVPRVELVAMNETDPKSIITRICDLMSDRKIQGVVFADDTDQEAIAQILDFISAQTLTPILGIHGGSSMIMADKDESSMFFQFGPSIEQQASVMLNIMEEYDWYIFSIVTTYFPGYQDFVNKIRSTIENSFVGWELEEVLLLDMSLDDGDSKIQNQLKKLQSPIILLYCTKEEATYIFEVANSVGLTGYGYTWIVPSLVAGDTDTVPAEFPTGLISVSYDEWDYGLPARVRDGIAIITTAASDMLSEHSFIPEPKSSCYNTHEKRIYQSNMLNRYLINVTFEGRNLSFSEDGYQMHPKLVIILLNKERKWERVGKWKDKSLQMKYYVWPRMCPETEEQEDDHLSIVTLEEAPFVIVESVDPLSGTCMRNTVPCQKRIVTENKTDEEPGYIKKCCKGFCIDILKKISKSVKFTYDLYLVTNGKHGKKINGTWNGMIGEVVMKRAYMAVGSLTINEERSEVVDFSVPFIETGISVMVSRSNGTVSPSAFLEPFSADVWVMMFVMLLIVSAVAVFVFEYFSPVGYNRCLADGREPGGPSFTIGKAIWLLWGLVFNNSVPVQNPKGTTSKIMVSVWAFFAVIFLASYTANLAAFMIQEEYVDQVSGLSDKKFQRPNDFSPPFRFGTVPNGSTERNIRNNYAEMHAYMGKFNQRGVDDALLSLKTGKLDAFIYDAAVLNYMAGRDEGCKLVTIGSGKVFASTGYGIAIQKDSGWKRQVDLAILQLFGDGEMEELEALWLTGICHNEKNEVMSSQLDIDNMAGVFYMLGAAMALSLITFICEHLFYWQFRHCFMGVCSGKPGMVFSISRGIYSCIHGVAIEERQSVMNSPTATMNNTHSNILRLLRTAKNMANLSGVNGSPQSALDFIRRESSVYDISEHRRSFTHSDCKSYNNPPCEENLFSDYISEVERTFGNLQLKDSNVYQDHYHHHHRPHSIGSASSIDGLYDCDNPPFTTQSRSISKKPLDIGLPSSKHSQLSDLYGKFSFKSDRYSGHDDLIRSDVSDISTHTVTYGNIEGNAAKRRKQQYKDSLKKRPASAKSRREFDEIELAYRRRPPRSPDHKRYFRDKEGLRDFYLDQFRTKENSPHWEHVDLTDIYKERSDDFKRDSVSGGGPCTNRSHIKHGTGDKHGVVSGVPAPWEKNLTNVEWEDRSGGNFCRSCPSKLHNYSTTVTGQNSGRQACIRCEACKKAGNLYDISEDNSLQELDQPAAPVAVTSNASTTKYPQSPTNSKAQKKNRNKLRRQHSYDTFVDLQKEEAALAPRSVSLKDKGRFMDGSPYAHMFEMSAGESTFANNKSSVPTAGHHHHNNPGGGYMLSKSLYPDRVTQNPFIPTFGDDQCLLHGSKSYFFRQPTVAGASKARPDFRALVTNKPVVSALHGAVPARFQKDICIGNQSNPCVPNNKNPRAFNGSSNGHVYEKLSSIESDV
assay.summary: Two electrode voltage clamp, Xenopus laevis oocytes expressing NR1/NR2B
Format: cell-based
measurement.parameters: at 100 μM; read-out: 2B percent effect at the maximum tested concentration
Procedure: In the table above, potency is expressed as fitted EC50 value to average composite concentration-effect data constructed from current responses recorded under two electrode voltage clamp from Xenopus laevis oocytes expressing either NR1/NR2A, B, C, or D, GluR1, or GluR6. No effect means less than 20% change in response amplitude at 30 μM of drug.
For each record, write down the corresponding activity at 100 µM.

Ask: Report activity at 100 µM for CC(C)(C)c1ccc(C(=O)Nc2scc(-c3ccc(Br)cc3)c2C(=O)O)cc1 [compound 1435] please.
Result: 98%

Ask: Looking for the measured activity at 100 µM of Cc1cc(C(=O)O)c(NC(=O)c2ccc(C(C)(C)C)cc2)s1 [compound 1357] , can you help?
Result: 102%

Ask: # query: activity at 100 µM of entry COc1cc2c(cc1OC)CN(C(=O)c1cccc(Cl)c1)CC2 [1180-29]
Result: 58%

Ask: Quick one: activity at 100 µM for COc1ccc(C(=O)Nc2sc(C)cc2C(=O)O)cc1 [compound 1420] ?
Result: 97%

Ask: Could you share which activity at 100 µM value was measured for O=C(O)C1=C(NC(=O)c2ccc(I)cc2)SC2CCCC12 (stereo not drawn) [compound 1419] ?
Result: 91%

Ask: Could you share which activity at 100 µM value was measured for COc1ccc(OCC2c3cc(OC)c(OC)cc3CCN2C(=O)c2cccs2)cc1 (stereo not drawn) [compound 1486] ?
Result: 88%

Ask: Can you look up the measured activity at 100 µM of CSC1=NCCN1C(=O)c1ccc2ccccc2c1 [compound 1402] for me?
Result: 80%

Ask: Requested read-out: activity at 100 µM. Entry: COc1cccc(OCC2c3cc(OC)c(OC)cc3CCN2C(=O)c2cccc(Cl)c2)c1 (stereo not drawn) [1180-6]
Result: 97%

Ask: Recorded activity at 100 µM of CCN1CC(C(O)Nc2ccc(OC)cc2OC)c2cc(OC)c(OC)cc2C1=O (stereo not drawn) [compound 1439] , please.
Result: 96%

Ask: Find the recorded activity at 100 µM belonging to CC(C)(C)c1ccc(C(=O)Nc2ccccc2C(=O)O)cc1 [compound 1479] and report it.
Result: 97%

Ask: Report activity at 100 µM for COc1ccc(OCC2c3cc(OC)c(OC)cc3CCN2C(=O)c2cccc(F)c2)cc1 (stereo not drawn) [compound 1369] please.
Result: 84%

Ask: Form field: reported activity at 100 µM of CC(C)(C)c1ccc(C(=O)Nc2sc3c(c2C(=O)O)CCCC3)cc1 [compound 1417]
Result: 102%

Ask: Look up activity at 100 µM for this molecule: COc1ccc(OCC2c3cc(OC)c(OC)cc3CCN2C(=O)c2cccc(Cl)c2)cc1 (stereo not drawn) [compound 1390]
Result: 82%

Ask: Please look up its activity at 100 µM: COc1ccc(OCC2c3cc(OC)c(OC)cc3CCN2C(=O)c2ccco2)cc1 (stereo not drawn) [1180-4]
Result: 69%

Ask: Please give the measured activity at 100 µM for this molecule: Cc1ccc(CSc2nccn2C(=O)c2ccc(C(C)(C)C)cc2)cc1 [compound 1403]
Result: 94%

Ask: # input molecule: COc1cc2c(cc1OC)C(COc1ccccc1)N(C(=O)c1ccccc1)CC2 (stereo not drawn) [1180-2] ; wanted: its activity at 100 µM
Result: 101%

Ask: Entry COc1ccc(OCC2c3cc(OC)c(OC)cc3CCN2C(=O)c2cccc([N+](=O)[O-])c2)cc1 (stereo not drawn) [1180-16] has what activity at 100 µM?
Result: 123%

Ask: # lookup: activity at 100 µM of COc1ccc(OCC2c3c(cc(OC)cc3OC)CCN2C(=O)c2ccccc2)cc1 (stereo not drawn) [1180-19]
Result: 100%
